- procedure text: Cytotoxicity assay (MTT reduction), HELA cells;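 further: MTT reduction read as absorbance at 595 nm, blank-corrected and expressed as percent growth relative to the time-zero cell reading, triplicate wells per concentration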
- assay conditions: human, HELA cells (Acc57)
parameter: CC50 at 48 h (µM)
A number alone suffices; assume µM.

Request: Which CC50 at 48 h value is on record for "N=C(N)NCCC[C@@H]1NC(=O)[C@@H]2CSSC[C@H](NC(=O)[C@H](Cc3ccc4ccccc4c3)NC(=O)[C@H](CCCNC(=N)N)NC(=O)[C@H](CCCNC(=N)N)NC(=O)[C@H]3CCCN3C(=O)CNC1=O)C(=O)N[C@@H](Cc1ccc(O)cc1)C(=O)N[C@@H](CCCNC(N)=O)C(=O)N[C@@H](CCCCN)C(=O)N1CCC[C@@H]1C(=O)N1CCC[C@H]1C(=O)N[C@@H](Cc1ccc(O)cc1)C(=O)N[C@@H](CCCNC(=N)N)C(=O)N[C@@H](CCCNC(N)=O)C(=O)N2" ?
Result: 97

###

- test target: CXCR4 (Homo sapiens, UniProt P61073)
- Sequence (P61073 whole entry): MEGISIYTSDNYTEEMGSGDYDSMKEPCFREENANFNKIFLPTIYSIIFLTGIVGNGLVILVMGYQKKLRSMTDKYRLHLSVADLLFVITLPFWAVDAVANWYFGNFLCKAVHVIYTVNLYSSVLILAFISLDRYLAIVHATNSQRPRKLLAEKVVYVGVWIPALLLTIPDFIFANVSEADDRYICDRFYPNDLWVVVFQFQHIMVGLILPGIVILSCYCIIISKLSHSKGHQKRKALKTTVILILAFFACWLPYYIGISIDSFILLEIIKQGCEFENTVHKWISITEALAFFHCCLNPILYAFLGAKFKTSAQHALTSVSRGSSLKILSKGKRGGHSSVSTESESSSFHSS
- procedure text: Ca2+-assay method 2 (Flexstation, SDF-1 induced calcium mobilization)
- Assay type: cell-based
- Design: expressed in transfected cells; host or cells: mouse pre-B cell line 300-19
- assay conditions: method 2 (Ex. 54-160), mouse pre-B cell line 300-19 with human CXCR4, 10 nM SDF-1; read-out: IC50 (nM) Ca^2+ assay
Bridge positions count the residues as written; N and C are the ends. Square brackets hold non-standard residues; d marks the D form. Peptide text beside a SMILES is read from it. 2Nal = N[C@@H](Cc1ccc2ccccc2c1)C(=O)O; 4Pal = N[C@@H](Cc1ccncc1)C(=O)O; Cit = NC(=O)NCCC[C@H](N)C(=O)O
Attribute: IC50
A number alone suffices; assume nM.

Worked set:
{"compound": "N=C(N)NCCC[C@@H]1NC(=O)[C@@H]2CSSC[C@H](NC(=O)[C@H](Cc3ccc4ccccc4c3)NC(=O)[C@H](CCCNC(=N)N)NC(=O)[C@H](CCCNC(=N)N)NC(=O)[C@H]3CCCN3C(=O)CNC1=O)C(=O)N[C@@H](Cc1ccc(O)cc1)C(=O)N[C@@H](CCC(N)=O)C(=O)N[C@@H](CCCCN)C(=O)N1CCC[C@@H]1C(=O)N1CCC[C@H]1C(=O)N[C@@H](Cc1ccc(O)cc1)C(=O)N[C@@H](CCCNC(=N)N)C(=O)N[C@@H](Cc1ccc(O)cc1)C(=O)N2 [Ex. 72] (cyclo(YRYCRG[dP]RR[2Nal]CYQK[dP]P); disulfide 4-11)", "IC50 [nM]": 3.9}
{"compound": "N=C(N)NCCC[C@@H]1NC(=O)[C@@H]2CSSC[C@H](NC(=O)[C@H](Cc3ccc4ccccc4c3)NC(=O)[C@H](CCCNC(=N)N)NC(=O)[C@H](CCCNC(=N)N)NC(=O)[C@H]3CCCN3C(=O)CNC1=O)C(=O)N[C@@H](Cc1ccc(O)cc1)C(=O)N[C@@H](CCC(N)=O)C(=O)N[C@@H](CCCCN)C(=O)N1CCC[C@@H]1C(=O)N1CCC[C@H]1C(=O)N[C@@H](Cc1ccc(O)cc1)C(=O)N[C@@H](CCCNC(=N)N)C(=O)N[C@@H](CO)C(=O)N2 [Ex. 96] (cyclo(YRSCRG[dP]RR[2Nal]CYQK[dP]P); disulfide 4-11)", "IC50 [nM]": 3}
{"compound": "N=C(N)NCCC[C@@H]1NC(=O)[C@@H]2CSSC[C@H](NC(=O)[C@H](Cc3ccc(O)cc3)NC(=O)[C@H](CCCNC(=N)N)NC(=O)[C@H](CCCNC(=N)N)NC(=O)[C@H]3CCCN3C(=O)CNC1=O)C(=O)N[C@@H](CCCNC(N)=O)C(=O)N[C@@H](Cc1ccc(O)cc1)C(=O)N[C@@H](CCCCN)C(=O)N1CCC[C@@H]1C(=O)N1CCC[C@H]1C(=O)N[C@@H](Cc1ccc(O)cc1)C(=O)N[C@@H](CCCNC(=N)N)C(=O)N[C@@H](CCCNC(N)=O)C(=O)N2 [Ex. 113] (cyclo(YR[Cit]CRG[dP]RRYC[Cit]YK[dP]P); disulfide 4-11)", "IC50 [nM]": 0.62}
{"compound": "N=C(N)NCCC[C@@H]1NC(=O)[C@@H]2CSSC[C@H](NC(=O)[C@H](Cc3ccc4ccccc4c3)NC(=O)[C@H](CCCNC(=N)N)NC(=O)[C@H](CCCNC(=N)N)NC(=O)[C@H]3CCCN3C(=O)CNC1=O)C(=O)N[C@@H](Cc1ccc(O)cc1)C(=O)N[C@@H](CCCNC(=N)N)C(=O)N[C@@H](CCCCN)C(=O)N1CCC[C@@H]1C(=O)N1CCC[C@H]1C(=O)N[C@@H](Cc1ccc(O)cc1)C(=O)N[C@@H](CCCNC(=N)N)C(=O)N[C@@H](CCCNC(N)=O)C(=O)N2 [compound 57] (cyclo(YR[Cit]CRG[dP]RR[2Nal]CYRK[dP]P); disulfide 4-11)", "IC50 [nM]": 4.2}
{"compound": "N=C(N)NCCC[C@@H]1NC(=O)[C@@H]2CSSC[C@H](NC(=O)[C@H](Cc3c[nH]c4ccccc34)NC(=O)[C@H](CCCNC(=N)N)NC(=O)[C@H](CCCNC(=N)N)NC(=O)[C@H]3CCCN3C(=O)CNC1=O)C(=O)N[C@@H](Cc1ccc(O)cc1)C(=O)N[C@@H](CCCNC(N)=O)C(=O)N[C@@H](CCC(N)=O)C(=O)N1CCC[C@@H]1C(=O)N1CCC[C@H]1C(=O)N[C@@H](Cc1ccc(O)cc1)C(=O)N[C@@H](CCCNC(=N)N)C(=O)N[C@@H](CCCNC(N)=O)C(=O)N2 [Ex. 121] (cyclo(YR[Cit]CRG[dP]RRWCY[Cit]Q[dP]P); disulfide 4-11)", "IC50 [nM]": 6.5}

Request: Given the entry N=C(N)NCCC[C@@H]1NC(=O)[C@@H]2CSSC[C@H](NC(=O)[C@H](Cc3ccc4ccccc4c3)NC(=O)[C@H](CCCNC(=N)N)NC(=O)[C@H](CCCNC(=N)N)NC(=O)[C@H]3CCCN3C(=O)CNC1=O)C(=O)N[C@@H](Cc1ccc(O)cc1)C(=O)N[C@@H](Cc1c[nH]cn1)C(=O)N[C@@H](CCCCN)C(=O)N1CCC[C@@H]1C(=O)N1CCC[C@H]1C(=O)N[C@@H](Cc1ccc(O)cc1)C(=O)N[C@@H](CCCNC(=N)N)C(=O)N[C@@H](CCCNC(N)=O)C(=O)N2 [Ex. 58] (cyclo(YR[Cit]CRG[dP]RR[2Nal]CYHK[dP]P); disulfide 4-11) , what IC50 was observed with CXCR4 (Homo sapiens, UniProt P61073)?
Result: 10.5

Request: Given the entry N=C(N)NCCC[C@@H]1NC(=O)[C@@H]2CSSC[C@H](NC(=O)[C@H](Cc3ccc(O)cc3)NC(=O)[C@H](CCCNC(=N)N)NC(=O)[C@H](CCCNC(=N)N)NC(=O)[C@H]3CCCN3C(=O)CNC1=O)C(=O)N[C@@H](Cc1ccc(O)cc1)C(=O)N[C@@H](CCCNC(N)=O)C(=O)N[C@@H](CCCCN)C(=O)N1CCC[C@@H]1C(=O)N1CCC[C@H]1C(=O)N[C@@H](Cc1ccc(O)cc1)C(=O)N[C@@H](CCCNC(=N)N)C(=O)N[C@@H](CCCNC(N)=O)C(=O)N2 [Ex. 112] (cyclo(YR[Cit]CRG[dP]RRYCY[Cit]K[dP]P); disulfide 4-11) , what IC50 was observed with CXCR4 (Homo sapiens, UniProt P61073)?
Result: 7.8

Request: Given the entry C[C@@H](O)[C@@H]1NC(=O)[C@H](CCCNC(=N)N)NC(=O)[C@H](Cc2ccc(O)cc2)NC(=O)[C@@H]2CCCN2C(=O)[C@H]2CCCN2C(=O)[C@H](CCCCN)NC(=O)[C@H](CCC(N)=O)NC(=O)[C@H](Cc2ccc(O)cc2)NC(=O)[C@@H]2CSSC[C@H](NC1=O)C(=O)N[C@@H](CCCNC(=N)N)C(=O)NCC(=O)N1CCC[C@@H]1C(=O)N[C@@H](Cc1ccncc1)C(=O)N[C@@H](CCCNC(=N)N)C(=O)N[C@@H](Cc1c[nH]c3ccccc13)C(=O)N2 [Ex. 118] (cyclo(YRTCRG[dP][4Pal]RWCYQK[dP]P); disulfide 4-11) , what IC50 was observed with CXCR4 (Homo sapiens, UniProt P61073)?
Result: 7.6

###

- procedure text: Pharmacokinetic study (PK) after single i.v. and i.p. administration
- Format: in vivo, male CD-1 mice
- assay conditions: male, CD-1, mouse, in vivo, ip, 10 mg/kg
parameter: level at 0.25 h (ng/mL)
A number alone suffices; assume ng/mL.

Request: Which level at 0.25 h value is on record for "N=C(N)NCCC[C@@H]1NC(=O)[C@@H]2CSSC[C@H](NC(=O)[C@H](Cc3ccc4ccccc4c3)NC(=O)[C@H](CCCNC(=N)N)NC(=O)[C@H](CCCNC(=N)N)NC(=O)[C@H]3CCCN3C(=O)CNC1=O)C(=O)N[C@@H](Cc1ccc(O)cc1)C(=O)N[C@@H](CCCNC(N)=O)C(=O)N[C@@H](CCCCN)C(=O)N1CCC[C@@H]1C(=O)N1CCC[C@H]1C(=O)N[C@@H](Cc1ccc(O)cc1)C(=O)N[C@@H](CCCNC(=N)N)C(=O)N[C@@H](CCCNC(N)=O)C(=O)N2" ?
Result: 673
